Target: T1, human CTLA4 (soluble analyte of the Biacore assays of Reference Example 3-3) (human, UniProt P16410 36-161)
T1 construct: also called hCTLA4
T1 sequence: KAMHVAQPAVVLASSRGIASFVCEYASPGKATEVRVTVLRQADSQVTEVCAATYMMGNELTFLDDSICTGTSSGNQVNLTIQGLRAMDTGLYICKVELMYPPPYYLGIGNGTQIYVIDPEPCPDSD
Assay: SPR, 1000 nM CTLA4, per unit antibody, ATP 1 uM
observed_property: Binding to Human CTLA4

| binder | observed_property | number |
| --- | --- | --- |
| 04H1208-G1m/04L1086-lam1 (antibody, human IgG1, lambda, V domains shown) VH: EVQLVESGGGLVKPGGSLRLSCAASGFTFSSKTMNWVRQAPGKGLEWVSSISTRSGYIYYARSVKGRFTISRDNAKNSLYLQMNSLRAEDTAVYYCARYGKREDMLWVFDYWGQGTLVTVSS VL: QSALTQPPSASGSPGQTVTISCDGPSTGVGDYNYVHWYQQHPGKAPKLMIYFTSKKPSGVPDRFSGSKSGNTASLTVSGLQAEDEADYFCQTYAAPLGPMFGGGTKLTVLG | Binding to Human CTLA4 | 0.03 |
